- Tested on: HIPK4
- setup-conditions: concentration: 1 μM, replicates: in singlicate; n = 1;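 further: KINOMEscan kinase panel screen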
Please go through the items and note down their %Inh.
// return numeric value only (unit: %, not printed)

Value of measured %Inh for the entry `COc1cccc(C2=C(Nc3ccc(Cl)c(C(=O)O)c3)C(=O)NC2=O)c1` : 0

Value of measured %Inh for the entry `CN(C)S(=O)(=O)c1cc(-c2ccc3nccc(-c4cccc(S(N)(=O)=O)c4)c3c2)cnc1N` : 48

Value of measured %Inh for the entry `Nc1ncnc2c1nc(-c1ccccc1)n2-c1ccccc1` : 9

###

- Tested on: CAMK2A
- setup-conditions: concentration: 1 μM, replicates: in singlicate; n = 1
measured-quantity: %Inh (%)
// return numeric value only (unit: %, not printed)

Value of measured %Inh for the entry Cc1ccc(C)c(NC(=O)NC2CCN(c3ccnc(Nc4ccc(F)cc4)n3)C2)c1 (centres unmarked) : 0

Value of measured %Inh for the entry `Cn1cc(-c2[nH]c3cc(NC(=O)[C@H](N)C4CCCCC4)cc4c3c2C=NNC4=O)cn1` : 68

Value of measured %Inh for the entry `CCc1ccc(-c2ccc3c(c2)-c2c(cnn2C)S(=O)(=O)N3C)cc1` : 0

Value of measured %Inh for the entry `Cc1cccc(NC(=O)Nc2ccc(Oc3ncnc4ccn(C)c34)cc2)c1` : 0

Value of measured %Inh for the entry `Cc1ccc(F)c(C(=O)Nc2cccc(-c3nn4ccccc4c3-c3ccnc(Nc4cccc(F)c4)n3)c2)c1F` : 5

###

- System: MAP4K4
- setup-conditions: concentration: 1 μM, replicates: in singlicate; n = 1
Please go through the items and note down their %Inh.
// return numeric value only (unit: %, not printed)

Value of measured %Inh for the entry `Cc1ccc(C(=O)N2CC[C@@H](O)C2)cc1-n1c(C)cc(OCc2ccc(F)cc2F)c(Br)c1=O` : 6

Value of measured %Inh for the entry CNC(=O)c1ccccc1Nc1nc(Nc2ccc(N3CCOCC3)cc2)ncc1Cl.Cl [GSK1576028] : 28

Value of measured %Inh for the entry `Cn1cc(-c2[nH]c3cc(NC(=O)[C@H](N)C4CCCCC4)cc4c3c2C=NNC4=O)cn1` : 48

Value of measured %Inh for the entry COc1ccc(Nc2nccc(N3CCC(NC(=O)Nc4cccc(OC)c4)C3)n2)cc1 (centres unmarked) [GSK1379742] : 0

Value of measured %Inh for the entry CSc1cccc2c(-c3ccncn3)c(-c3ccc(F)cc3)nn12 [GW514786] : 2

Value of measured %Inh for the entry O=C(O)C(F)(F)F.O=C(O)C(F)(F)F.O=c1[nH]ccc2nc(N[C@@H]3CCCNC3)nc(Nc3ccc(S(=O)(=O)N4CCOCC4)cc3)c12 [GSK2177277] : 97.6

Value of measured %Inh for the entry Cl.NC(=O)c1cccc(Nc2nccc(Nc3ccc(Oc4c(Cl)cccc4Cl)c(Cl)c3)n2)c1 [GW659009] : 0

Value of measured %Inh for the entry COc1cc(Nc2nccc(-c3c(-c4cccc(NC(=O)c5c(F)cccc5F)c4)nn4ccccc34)n2)cc(OC)c1OC [GSK323521] : 0

###

Please go through the items and note down their %Inh.
- System: BLK
- setup-conditions: concentration: 1 μM, replicates: in singlicate; n = 1
// return numeric value only (unit: %, not printed)

Value of measured %Inh for the entry CC(=O)N1CCN(c2ccc(Nc3nccc(-c4sc(C(C)C)nc4-c4cccc(NS(=O)(=O)c5cccc(Cl)c5)c4)n3)cn2)CC1 [GSK1660437] : 91.4

Value of measured %Inh for the entry O=C(Nc1cccc(-c2nn3ncccc3c2-c2ccnc(Nc3ccccc3)n2)c1)c1c(F)cccc1F [GSK198271] : 97.5

Value of measured %Inh for the entry COc1cccc(-c2ccc3c(NC(=O)C4CC4)n[nH]c3n2)c1 [SB-710903] : 0

Value of measured %Inh for the entry C[C@@H]1CC[C@@H](C(=O)Nc2ccccc2)CN1c1cc(-c2ccc3c(N)n[nH]c3c2)nc(N)n1 [GSK2286062] : 0

Value of measured %Inh for the entry O=c1[nH]cc(-c2ccc(N3CCOCC3)cc2)c2sc(-c3cn[nH]c3)cc12 [GSK2276055] : 0

Value of measured %Inh for the entry CN(C)Cc1ccc(-c2ccc3c(Nc4ccc(Oc5ccccn5)cc4)ccnc3c2)o1 [GW567148] : 91.5

###

- Tested on: EPHA3
- setup-conditions: concentration: 1 μM, replicates: in singlicate; n = 1
measured-quantity: %Inh (%)
// return numeric value only (unit: %, not printed)

// returns %Inh for O=C(O)C(F)(F)F.O=C(O)C(F)(F)F.O=c1[nH]ccc2nc(N[C@@H]3CCCNC3)nc(Nc3ccc(S(=O)(=O)N4CCOCC4)cc3)c12 [GSK2177277] with EPHA3; value = 98.9

// returns %Inh for Cc1ccc(C)c(NC(=O)NC2CCN(c3ccnc(Nc4ccc(F)cc4)n3)C2)c1 (stereo not shown) [GSK1379720] with EPHA3; value = 0

// returns %Inh for CNC(=O)c1ccccc1Nc1nc(Nc2ccc(N3CCOCC3)cc2)ncc1Cl.Cl [GSK1576028] with EPHA3; value = 76

// returns %Inh for COC(=O)Nc1nc2ccc(Oc3ccc(NC(=O)Nc4cc(C(F)(F)F)ccc4F)cc3)cc2n1C.Cl [GW692089] with EPHA3; value = 26

// returns %Inh for Cc1ccc(F)c(C(=O)Nc2cccc(-c3nn4ccccc4c3-c3ccnc(Nc4cccc(F)c4)n3)c2)c1F [GSK361061] with EPHA3; value = 25

// returns %Inh for Cc1ccc(C(=O)Nc2ccc(Nc3ccnc4cc(-c5nccs5)ccc34)cc2O)cc1.Cl [GW494702] with EPHA3; value = 0

// returns %Inh for COc1cc(Nc2nccc(N3CCC(NC(=O)Nc4cccc(C(C)=O)c4)C3)n2)cc(OC)c1OC (stereo not shown) [GSK1379753] with EPHA3; value = 0

// returns %Inh for CC(C)(C)c1ccc2nccc(Nc3cccc(O)c3)c2c1 [GW856795] with EPHA3; value = 21

// returns %Inh for CCn1c(-c2nonc2N)nc2c(C#CC(C)(C)O)ncc(OCCCCN)c21.O=C(O)C(F)(F)F.O=C(O)C(F)(F)F [GSK507274] with EPHA3; value = 38

// returns %Inh for Cc1cccc(Nc2nc(N[C@H]3CCNC3)ncc2C(N)=O)c1.Cl [GSK2197149] with EPHA3; value = 45

###

Please go through the items and note down their %Inh.
- System: PIK3CD
- setup-conditions: concentration: 1 μM, replicates: in singlicate; n = 1
Your answer should be a number followed by the unit of measure.

Value of measured %Inh for the entry COc1cccc(NC(=O)NC2CCN(c3ccnc(Nc4cc(OC)c(OC)c(OC)c4)n3)C2)c1 (centres unmarked) : 51%

Value of measured %Inh for the entry `Cc1cccc(Nc2nc(N[C@H]3CCNC3)ncc2C(N)=O)c1.Cl` : 0%

Value of measured %Inh for the entry COc1cc(Nc2nccc(N3CCC(NC(=O)c4cc5ccccc5s4)C3)n2)cc(OC)c1OC (centres unmarked) : 14%

Value of measured %Inh for the entry `Cn1cc(-c2ccc3c(c2)CCN3C(=O)Cc2cccc(Cl)c2)c2c(N)ncnc21` : 0%

Value of measured %Inh for the entry `O=C(Nc1n[nH]c2cc(-c3ccoc3)ccc12)C1CC1` : 5%

Value of measured %Inh for the entry `CN1CCN(CCCNc2nccc(-c3c(-c4ccc(F)cc4)nn4cc(C(F)(F)F)ccc34)n2)CC1` : 10%

Value of measured %Inh for the entry `CN(C)Cc1ccc(-c2ccc3c(Nc4ccc(Oc5ccccn5)cc4)ccnc3c2)o1` : 0%

Value of measured %Inh for the entry `Nc1n[nH]c2cnc(-c3ccccc3)cc12` : 0%

Value of measured %Inh for the entry `Cn1cc(-c2ccc3c(c2)CCN3C(=O)Cc2cccc(F)c2)c2c(N)ncnc21` : 28%

Value of measured %Inh for the entry `Clc1ccc(-c2nn3ncccc3c2-c2ccnc(Nc3ccc4c(c3)OCCO4)n2)cc1` : 0%

Value of measured %Inh for the entry `Cn1cc(-c2[nH]c3cc(NC(=O)[C@H](N)C4CCCCC4)cc4c3c2C=NNC4=O)cn1` : 6%

Value of measured %Inh for the entry `CSc1cccc2c(-c3ccncn3)c(-c3ccc(F)cc3)nn12` : 0%

Value of measured %Inh for the entry `COc1cc(Nc2nccc(-c3c(-c4cccc(NC(=O)c5c(F)cccc5F)c4)nn4ncccc34)n2)cc(OC)c1OC` : 0%

Value of measured %Inh for the entry `COC(=O)Nc1nc2cc(Oc3ccc(NC(=O)Nc4cc(C(F)(F)F)ccc4F)cn3)ccc2[nH]1.Cl.Cl` : 0%

###

Please go through the items and note down their %Inh.
- System: TNK2
- setup-conditions: concentration: 1 μM, replicates: in singlicate; n = 1
// return numeric value only (unit: %, not printed)

Value of measured %Inh for the entry Nc1n[nH]c2cnc(-c3ccccc3)cc12 [SB-642124] : 38

Value of measured %Inh for the entry O=C(Nc1ccccc1F)NC1CCN(c2ccnc(Nc3ccc(F)cc3)n2)CC1 [GSK1379800] : 15

Value of measured %Inh for the entry Cl.NC(=O)c1cccc(Nc2nccc(Nc3ccc(Oc4c(Cl)cccc4Cl)c(Cl)c3)n2)c1 [GW659009] : 0

Value of measured %Inh for the entry Oc1cc(Nc2ccnc3cc(I)ccc23)ccc1F [GW552771] : 2

Value of measured %Inh for the entry `Cc1cccc(NC(=O)Nc2ccc(Oc3ncnc4ccn(C)c34)cc2)c1` : 5

Value of measured %Inh for the entry Cn1cc(-c2ccc3c(c2)CCN3C(=O)Cc2cccc(F)c2)c2c(N)ncnc21 [GSK2603358] : 3

Value of measured %Inh for the entry c1ccc(-c2cnc3nccnn23)cc1 [AH20685] : 0

Value of measured %Inh for the entry CCCCc1nn2ncccc2c1-c1ccnc(Nc2ccc(N3CCN(C)CC3)cc2)n1 [GW684941] : 62

Value of measured %Inh for the entry Cc1ccc(F)c(C(=O)Nc2cccc(-c3nn4ccccc4c3-c3ccnc(Nc4cccc(F)c4)n3)c2)c1F [GSK361061] : 43

Value of measured %Inh for the entry C[C@@H]1CC[C@@H](C(=O)Nc2ccccc2)CN1c1cc(-c2ccc3c(N)n[nH]c3c2)nc(N)n1 [GSK2286062] : 0

Value of measured %Inh for the entry `Cc1ccc(C(=O)N2CC[C@@H](O)C2)cc1-n1c(C)cc(OCc2ccc(F)cc2F)c(Br)c1=O` : 0

Value of measured %Inh for the entry Cl.Cl.NCC(NCc1ccc(-c2ccnc3[nH]ccc23)s1)c1ccccc1 (stereo not drawn) [GSK1321565] : 0

Value of measured %Inh for the entry COC(=O)Nc1nc2ccc(Oc3ccc(NC(=O)Nc4cc(C(F)(F)F)ccc4F)cc3)cc2n1C.Cl [GW692089] : 0

Value of measured %Inh for the entry O=c1[nH]cc(-c2ccc(N3CCOCC3)cc2)c2sc(-c3cn[nH]c3)cc12 [GSK2276055] : 0

Value of measured %Inh for the entry COc1cc(Nc2nccc(-c3c(-c4cccc(NC(=O)c5c(F)cccc5F)c4)nn4ccccc34)n2)cc(OC)c1OC [GSK323521] : 1

Value of measured %Inh for the entry Cl.Cl.NCC(NC(=O)c1cc(-c2ccccc2)c(-c2ccnc3[nH]ccc23)s1)c1ccccc1 (stereo not drawn) [GSK1321561] : 7

Value of measured %Inh for the entry O=C(Nc1cccc(-c2nn3ccccc3c2-c2ccnc(Nc3cccc(C(F)(F)F)c3)n2)c1)c1c(F)cccc1F [GSK292658] : 22

Value of measured %Inh for the entry CC(C)(C)c1ccc2nccc(Nc3cccc(O)c3)c2c1 [GW856795] : 0

Value of measured %Inh for the entry NCCCC(NC(=O)c1cc(Br)c(-c2ccnc3[nH]ccc23)s1)c1ccccc1.O=C(O)C(F)(F)F.O=C(O)C(F)(F)F (stereo not drawn) [GSK1287544] : 0

Value of measured %Inh for the entry CN1CCN(Cc2cccc(-c3ccc4c(Nc5ccc(Oc6ccccc6)cc5)ccnc4c3)c2)CC1 [GW578342] : 7

Value of measured %Inh for the entry COc1cc(Nc2nccc(N3CCC(NC(=O)Nc4cccc(C(C)=O)c4)C3)n2)cc(OC)c1OC (stereo not drawn) [GSK1379753] : 19
